Hey, just so you know, these numbers are from paper PMC5414049.

# studySystem: pyruvate decarboxylase (Pdc1) (Saccharomyces cerevisiae, UniProt P06169)
# Sequence (P06169 2-563): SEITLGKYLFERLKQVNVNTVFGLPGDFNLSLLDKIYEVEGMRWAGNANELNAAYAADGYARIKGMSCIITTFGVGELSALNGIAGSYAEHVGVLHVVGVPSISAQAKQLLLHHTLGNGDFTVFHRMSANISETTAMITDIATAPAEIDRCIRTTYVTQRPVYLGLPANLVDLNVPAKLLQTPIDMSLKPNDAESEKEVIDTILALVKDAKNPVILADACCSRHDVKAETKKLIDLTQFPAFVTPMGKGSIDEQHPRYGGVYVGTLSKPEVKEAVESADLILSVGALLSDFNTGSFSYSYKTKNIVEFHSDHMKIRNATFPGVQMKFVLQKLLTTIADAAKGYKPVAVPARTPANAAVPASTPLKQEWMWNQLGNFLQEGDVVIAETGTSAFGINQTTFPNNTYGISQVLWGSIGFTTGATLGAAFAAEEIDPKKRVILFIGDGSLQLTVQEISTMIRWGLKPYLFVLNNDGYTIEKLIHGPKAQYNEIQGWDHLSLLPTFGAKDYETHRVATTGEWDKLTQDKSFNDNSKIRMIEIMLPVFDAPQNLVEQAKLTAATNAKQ
# assayText: ADH/NADH-coupled spectrophotometric assay, 1H-NMR confirmation
# Format: biochemical
pKi: −log10 of the molar value.
measureName: pKi

[[record]]
compound = "O=C(O)C(=O)Cc1ccccc1 [phenylpyruvate]"
studysystem = "pyruvate decarboxylase (Pdc1) (Saccharomyces cerevisiae, UniProt P06169)"
measurename = "pKi"
obsvalue = "2.40 to 3.00"

